Target: recombinant human Cox-1 (r-hu Cox-1, PGHS-1) (Homo sapiens, UniProt P23219)
Construct: made in house; host or cells: baculovirus/Sf9 insect cells (microsomes)
Sequence (P23219 24-599): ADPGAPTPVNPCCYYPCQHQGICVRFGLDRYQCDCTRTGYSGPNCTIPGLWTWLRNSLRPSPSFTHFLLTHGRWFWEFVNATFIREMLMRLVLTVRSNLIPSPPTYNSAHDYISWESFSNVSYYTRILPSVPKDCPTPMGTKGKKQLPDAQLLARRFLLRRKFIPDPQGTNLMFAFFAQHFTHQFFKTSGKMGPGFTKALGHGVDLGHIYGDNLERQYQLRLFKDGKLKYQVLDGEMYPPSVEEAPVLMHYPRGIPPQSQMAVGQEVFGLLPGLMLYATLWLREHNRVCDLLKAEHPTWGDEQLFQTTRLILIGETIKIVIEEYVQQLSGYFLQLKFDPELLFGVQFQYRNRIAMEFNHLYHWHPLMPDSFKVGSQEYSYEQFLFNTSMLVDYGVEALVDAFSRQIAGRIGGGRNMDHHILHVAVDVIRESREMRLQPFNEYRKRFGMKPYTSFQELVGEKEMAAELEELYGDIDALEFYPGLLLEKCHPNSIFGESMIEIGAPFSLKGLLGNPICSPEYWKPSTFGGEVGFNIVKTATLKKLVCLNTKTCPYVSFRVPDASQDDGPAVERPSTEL
Assay: Recombinant human PGHS-1 (r-hu Cox-1) enzyme assay, PGE2 by EIA
Format: biochemical
Conditions: at 100 μM; read-out: r-hu COX1 percent inhibition
measured endpoint: inhibition at 100 µM (%)

[1] CCn1nc(OCC(=O)c2cccs2)c(-c2ccc(F)cc2)c1-c1ccc(S(C)(=O)=O)cc1
[2] CCn1nc(OC2CSCCC2=O)c(-c2ccc(F)cc2)c1-c1ccc(S(C)(=O)=O)cc1 (centres unmarked)
[3] C=CCOc1nn(CC=C)c(-c2ccc(S(C)(=O)=O)cc2)c1-c1ccc(F)cc1
[4] C=CCn1nc(OCC(=O)c2cccs2)c(-c2ccc(F)cc2)c1-c1ccc(S(C)(=O)=O)cc1
Rank by decreasing inhibition at 100 µM the items listed here. List labels; respect the requested ordering.
3, 2, 1, 4

[a] CS(=O)(=O)c1ccc(-c2c(-c3ccc(F)cc3)c(OCc3ccccc3)nn2Cc2ccccc2)cc1
[b] CCn1nc(OCC(=O)C(C)(C)C)c(-c2ccc(F)cc2)c1-c1ccc(S(N)(=O)=O)cc1
Response body: label of entry with the larger inhibition at 100 µM; valid values a , b . State the label of the item chosen.
b
(b: 54%, a: 26%)

[A] CS(=O)(=O)c1ccc(-c2c(-c3ccc(F)cc3)c(OCc3ccc(F)cc3)nn2Cc2ccc(F)cc2)cc1
[B] CCn1nc(OCC(=O)C(C)(C)C)c(-c2ccc(F)cc2)c1-c1ccc(S(C)(=O)=O)cc1
Hi! Which is lower in terms of inhibition at 100 µM, the first one A or the second one B ? Respond using the label that marks the chosen record.
B
(B: 0%, A: 29%)
